Kindly state ^125I in nucleus, 1 hour for each of the entries shown.
System: OVCAR-3 cells
Assay: Subcellular distribution of 125I-labeled reagents
Format: cell-based, human
Conditions: 1 h incubation, 55.5 kBq/mL

So what's the measured ^125I in nucleus, 1 hour for this one? O=c1[nH]c(=O)n([C@H]2C[C@H](O)[C@@H](COP3(=O)OCc4ccccc4O3)O2)cc1[125I] (stereo partly shown) [6b]
5.7 (1.6) cpm/10^3 cells (std dev)

Same again, this time with Cc1cccc2c1OP(=O)(OC[C@H]1O[C@@H](n3cc([125I])c(=O)[nH]c3=O)C[C@@H]1O)OC2 (stereo partly shown) [7b]
4.5 (1.0) cpm/10^3 cells (std dev)

Same again, this time with CC(C)(C)c1cc(C(C)(C)C)c2c(c1F)COP(=O)(OC[C@H]1O[C@@H](n3cc([125I])c(=O)[nH]c3=O)C[C@@H]1O)O2 (stereo partly shown) [8b]
7.9 (0.4) cpm/10^3 cells (std dev)

Same again, this time with Cc1cccc2c1OP(=O)(OC[C@H]1O[C@@H](n3cc([125I])c(=O)[nH]c3=O)C[C@@H]1O)OC2 (stereo partly shown) [7b-slow]
5.4 (0.4) cpm/10^3 cells (std dev)

Same again, this time with CC(C)(C)c1cc(C(C)(C)C)c2c(c1F)COP(=O)(OC[C@H]1O[C@@H](n3cc([125I])c(=O)[nH]c3=O)C[C@@H]1O)O2 (stereo partly shown) [8b-slow]
7.8 (0.6) cpm/10^3 cells (std dev)

Same again, this time with Cc1cccc2c1OP(=O)(OC[C@H]1O[C@@H](n3cc([125I])c(=O)[nH]c3=O)C[C@@H]1OP1(=O)OCc3cccc(C)c3O1)OC2 (stereo partly shown) [10b]
6.0 (0.9) cpm/10^3 cells (std dev)

Same again, this time with O=c1[nH]c(=O)n([C@H]2C[C@H](OP3(=O)OCc4ccccc4O3)[C@@H](CO)O2)cc1[125I] (stereo partly shown) [12b]
2.1 (0.2) cpm/10^3 cells (std dev)

Reference source: paper PMC3328401
